Value source: patent US7244727B2

assay_system: UniProt:O75907
Sequence (O75907 1-488): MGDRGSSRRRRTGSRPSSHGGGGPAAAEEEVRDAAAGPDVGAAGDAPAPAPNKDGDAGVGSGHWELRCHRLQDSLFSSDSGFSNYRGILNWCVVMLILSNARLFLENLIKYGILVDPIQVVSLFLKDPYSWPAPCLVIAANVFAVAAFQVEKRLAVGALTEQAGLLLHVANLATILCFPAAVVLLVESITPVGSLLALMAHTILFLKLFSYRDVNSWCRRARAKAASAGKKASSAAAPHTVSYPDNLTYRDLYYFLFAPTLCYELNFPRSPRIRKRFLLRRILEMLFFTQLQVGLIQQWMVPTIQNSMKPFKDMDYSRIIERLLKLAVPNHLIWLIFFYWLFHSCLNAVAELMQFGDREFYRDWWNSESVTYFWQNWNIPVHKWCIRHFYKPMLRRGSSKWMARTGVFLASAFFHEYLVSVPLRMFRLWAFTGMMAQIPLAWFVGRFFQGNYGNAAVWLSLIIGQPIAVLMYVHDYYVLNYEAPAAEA
pIC50: −log10 of the molar value.
observable: pIC50

CC(C(=O)O)[C@H]1CC[C@H](c2ccc(C3=Nc4c(N)ncnc4OC3(C)C)cc2)CC1 (some centres unmarked) [Example 2-69]: > 8.00
CC1(C)Oc2ncnc(N)c2N=C1c1ccc(C2CCC(C(C)(C)C(=O)O)CC2)cc1 (centres unmarked) [Example 10-3]: > 8.00
CN1CCN(C[C@H]2CC[C@H](c3ccc(C4=Nc5c(N)ncnc5OC4(C)C)cc3)CC2)CC1 [Example 2-230]: 7.00 to 8.00
CC1(C)Oc2ncnc(N)c2N=C1c1ccc([C@H]2CC[C@H](CN3CCC(CCO)CC3)CC2)cc1 [Example 2-227]: < 7.00
Cc1nc(N)c2c(n1)OC(C)(C)C(c1ccc(C3CC(CC(=O)O)C3)cc1)=N2 (centres unmarked) [Example 2-146]: 7.00 to 8.00

(Q) // fetch pIC50 for Cc1nc(N)c2c(n1)OC(C)(C)C(c1ccc([C@H]3CC[C@H](CCc4nc(=O)[nH]n4C)CC3)cc1)=N2 [Example 2-198] ; system: UniProt:O75907
(A) 7.00 to 8.00

(Q) // fetch pIC50 for CC1(C)Oc2ncnc(N)c2N=C1c1ccc([C@H]2CC[C@H](CCN3CCC(CCO)CC3)CC2)cc1 [Example 2-87] ; system: UniProt:O75907
(A) < 7.00

(Q) // fetch pIC50 for Nc1ncnc2c1N=C(c1ccccn1)CO2 [Example 1-16] ; system: UniProt:O75907
(A) < 7.00

(Q) // fetch pIC50 for CC1(C)Oc2ncnc(N)c2N=C1c1ccc([C@H]2CC[C@H](CN3C(=O)c4ccccc4C3=O)CC2)cc1 [Example 2-217] ; system: UniProt:O75907
(A) 7.00 to 8.00

(Q) // fetch pIC50 for Nc1ncnc2c1N=C(C1CCCCC1)CO2 [Example 1-22] ; system: UniProt:O75907
(A) < 7.00

(Q) // fetch pIC50 for Cc1nc(N)c2c(n1)OC(C)(C)C(c1ccc([C@H]3CC[C@H](CC(=O)Cc4nn[nH]n4)CC3)cc1)=N2 [Example 2-148] ; system: UniProt:O75907
(A) > 8.00
